// provenance: patent US9440957B2

In this section we review reported pIC50 values for a set of molecules.
# measured-on: HEKn (EGFR WT) (Homo sapiens, UniProt P00533)
# Sequence (P00533 25-1210): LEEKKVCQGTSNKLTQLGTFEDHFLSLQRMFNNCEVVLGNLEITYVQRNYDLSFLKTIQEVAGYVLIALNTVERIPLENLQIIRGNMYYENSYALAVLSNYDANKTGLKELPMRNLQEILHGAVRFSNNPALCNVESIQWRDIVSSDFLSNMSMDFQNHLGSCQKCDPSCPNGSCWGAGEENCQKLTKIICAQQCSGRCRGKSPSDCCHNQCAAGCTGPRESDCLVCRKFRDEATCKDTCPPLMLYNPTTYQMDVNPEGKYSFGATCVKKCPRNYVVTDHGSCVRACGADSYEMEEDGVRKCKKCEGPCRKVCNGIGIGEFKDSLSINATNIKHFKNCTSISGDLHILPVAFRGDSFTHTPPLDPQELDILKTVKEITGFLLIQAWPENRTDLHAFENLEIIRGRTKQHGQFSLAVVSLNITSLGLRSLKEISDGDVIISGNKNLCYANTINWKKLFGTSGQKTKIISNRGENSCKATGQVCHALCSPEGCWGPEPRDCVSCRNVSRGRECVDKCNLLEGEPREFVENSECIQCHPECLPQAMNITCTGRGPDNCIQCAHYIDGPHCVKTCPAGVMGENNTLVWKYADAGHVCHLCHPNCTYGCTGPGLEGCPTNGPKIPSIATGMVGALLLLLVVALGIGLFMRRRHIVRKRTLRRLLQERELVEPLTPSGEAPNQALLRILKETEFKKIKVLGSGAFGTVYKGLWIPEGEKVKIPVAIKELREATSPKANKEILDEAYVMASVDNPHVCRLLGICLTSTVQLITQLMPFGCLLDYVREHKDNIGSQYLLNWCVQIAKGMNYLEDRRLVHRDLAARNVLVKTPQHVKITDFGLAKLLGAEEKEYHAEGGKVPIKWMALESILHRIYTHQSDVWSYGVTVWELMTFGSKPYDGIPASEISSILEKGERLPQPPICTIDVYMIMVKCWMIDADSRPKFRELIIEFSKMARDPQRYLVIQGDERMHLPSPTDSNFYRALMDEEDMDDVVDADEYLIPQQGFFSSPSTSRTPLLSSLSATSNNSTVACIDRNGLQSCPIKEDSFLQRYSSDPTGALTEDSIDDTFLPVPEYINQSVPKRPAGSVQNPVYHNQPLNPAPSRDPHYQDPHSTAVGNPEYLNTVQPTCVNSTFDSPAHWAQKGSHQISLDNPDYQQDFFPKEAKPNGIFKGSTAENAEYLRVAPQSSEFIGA
# experimental-details: EGFR target modulation in HEKn (EGFR-WT) cell line (phospho-EGFR Y1173 ELISA)
# Type: cell-based
# applied-conditions: value outside parentheses
# Procedure: EGFR Target Modulation in HEKn (EGFR-WT) Cell Line Tissue Culture. Human neonatal epithelial keratinocytes (Invitrogen #C-001-5C) were maintained in EpiLife media (Invitrogen #[…]) supplemented with growth factors (Invitrogen #S-001-5). […] Signal was read on EnVision plate reader using built-in UltraLUM setting. […] With these parameters, the IC50's for each compound in each cell line was calculated using non-linear curve fitting analysis.
pIC50 is defined as minus the log10 of a concentration measured in mol/L.

>  <molecule>
Cc1cncc(C(=O)Nc2nc3cccc(C)c3n2[C@@H]2CCCCN(C(=O)/C=C/CN(C)C)C2)c1

>  <measured-on>
HEKn (EGFR WT) (Homo sapiens, UniProt P00533)

>  <pIC50>
6.69

$$$$
>  <molecule>
C=CC(=O)N1CCCC[C@@H](n2c(NC(=O)c3ccnnc3)nc3cccc(C)c32)C1

>  <measured-on>
HEKn (EGFR WT) (Homo sapiens, UniProt P00533)

>  <pIC50>
7.35

$$$$
>  <molecule>
C=CC(=O)N1CCCC[C@@H](n2c(NC(=O)c3ccnc(C)c3)nc3cc(CN4CC[C@H](OC)C4)cc(C)c32)C1

>  <measured-on>
HEKn (EGFR WT) (Homo sapiens, UniProt P00533)

>  <pIC50>
7.12

$$$$
>  <molecule>
Cc1cccc2nc(NC(=O)c3cnc(Cl)c(Cl)c3)n([C@@H]3CCCCN(C(=O)/C=C/CN(C)C)C3)c12

>  <measured-on>
HEKn (EGFR WT) (Homo sapiens, UniProt P00533)

>  <pIC50>
5.77

$$$$
>  <molecule>
Cc1cc(C(=O)Nc2nc3cccc(Cl)c3n2[C@@H]2CCCCN(C(=O)/C=C/CN3CC(F)(F)C3)C2)ccn1

>  <measured-on>
HEKn (EGFR WT) (Homo sapiens, UniProt P00533)

>  <pIC50>
5.35

$$$$

Q) Endpoint output: pIC50 of C=CC(=O)N1CCCC[C@@H](n2c(NC(=O)c3cc(C)nc(C)c3)nc3cc(CN4CC[C@H](OC)C4)ccc32)C1 . Value?
A) 6.54

Q) Same thing, different molecule: C=CC(=O)N1CCCC[C@@H](n2c(NC(=O)c3cccc(F)c3F)nc3cc(CN4CC[C@@H](OC)C4)cc(C)c32)C1
A) 6.63

Q) Item: Cc1cccc2nc(NC(=O)c3ccnnc3)n([C@@H]3CCCCN(C(=O)/C=C/CN(C)C)C3)c12
A) 6.90

Q) And then C=CC(=O)N1CCCC[C@@H](n2c(NC(=O)c3ccnc(C)c3)nc3cc(CN4CC[C@@H](OC)C4)cc(C)c32)C1 , what is it?
A) 6.89

Q) And the next one, Cc1cc(C(=O)Nc2nc3cccc(Cl)c3n2[C@@H]2CCCCN(C(=O)/C=C/CN3CC[C@@H](O)C3)C2)ccn1 ?
A) 5.90

Q) Next: Cc1cccc2nc(NC(=O)c3ccc(C(F)(F)F)nc3)n(C3CCCCN(C(=O)/C=C/CN(C)C)C3)c12 (centres unmarked)
A) 6.67
